Where these numbers come from: PubChem BioAssay (NCI)

Test system: OVCAR-4 ovarian
Experiment: NCI tumour cell line growth inhibition, 48 h
ENDPOINT: TGI

Use these answered entries as a reference point.
INSERT INTO assay_data (molecule, recorded_result) VALUES
  ('O=C1OC(=O)C2=C1C(c1cccs1)C=C(c1cccnc1)N2c1ccncc1 (centres undefined)', '36 µM'),
  ('COc1cc(-c2nn(-c3ccc(NC(=O)NCCCNC(=O)c4ccccc4)cc3)cc2-c2ccncc2)ccc1Cl', '> 100 µM');

Query string: Report TGI for "CC(C)(C)N/N=C(\C(=O)Nc1ccc([N+](=O)[O-])cc1[N+](=O)[O-])c1nc2ccc([N+](=O)[O-])cc2[nH]c1=O" please.
Result string: > 100 µM

Query string: Form field: reported TGI of C/C=C\C(CC(=O)O)CN1CCC2=C(C1)C(S(=O)(=O)C(F)(F)F)c1ccccc12 (centres undefined)
Result string: > 100 µM

Query string: Please report the recorded TGI for CC1SC(c2ccc(Cl)c(Cl)c2)N(NC(=O)C(O)c2ccccc2)C1=O (centres undefined) .
Result string: 91.2 µM

Query string: Which TGI is listed for "Cc1cccc(NC2=C(Cl)C(=O)N(Cc3ccc(Cl)cc3)C2=O)c1" ?
Result string: 40.4 µM

Query string: What value of TGI has been recorded for this entry: "Cc1c2nc3ccccc3sc-2cc(=O)c1C"
Result string: > 100 µM

Query string: Query (molecule): "O=C(Nc1ccc(Oc2cccc(Cl)c2)c(Cl)c1)c1cnccn1" ; field requested: TGI
Result string: > 50 µM

Query string: Look up TGI: "Cn1c(-c2c(N)n(Cc3ccc(C(F)(F)F)cc3)c3nc(C#N)c(C#N)nc23)nc2ccccc21"
Result string: > 100 µM
